This listing pairs compounds with measured pIC50.
Tested on: SMMC-7721
Assay: CellTiter-Glo luminescent cell viability assay
Assay type: cell-based
Conditions: 120 h incubation, read-out: Anti-proliferative activity IC50 SMMC-7721
By convention, pIC50 is the negative base-10 log of a molar concentration.

Below: 4 compounds and their reported pIC50.
compound	pIC50
Cc1ccc(NC(=O)c2cccnc2)cc1Oc1nccc(-c2ccccc2)n1	4.69
Cc1ccc(C(=O)Nc2ccc(C)c(Oc3nccc(-c4cccnc4)n3)c2)cc1	4.60
Cc1ccc(NC(=O)c2ccc(F)cc2)cc1Oc1nccc(-c2cccnc2)n1	4.68
CC(=O)Nc1ccc(C)c(Oc2nccc(-c3cc4ccccc4o3)n2)c1 [E1]	6.52

Query :: Identify pIC50 associated with the compound Cc1ccc(NC(=O)c2ccccc2)cc1Oc1nccc(-c2ccccc2)n1
Result :: 5.57

Query :: Identify pIC50 associated with the compound Cc1cccc(C(=O)Nc2ccc(C)c(Oc3nccc(-c4cccnc4)n3)c2)c1
Result :: 4.76

Query :: Identify pIC50 associated with the compound Cc1ccc(NC(=O)CN2CCN(C)CC2)cc1Oc1nccc(-c2cc3ccccc3o2)n1
Result :: 4.56

Query :: Identify pIC50 associated with the compound Cc1ccc(NC(=O)c2ccncc2)cc1Oc1nccc(-c2cccnc2)n1
Result :: 3.95
